System: Enterococcus faecium
Experiment: Antibacterial activity against vancomycin-resistant Enterococcus faecium ATCC 700221 assessed as inhibition of bacterial growth by broth microdilution method
Assay type: functional
PROPERTY: log10 of MIC (log10 of the value in µg/mL)
Units before log transform: µg/mL; reported quantity: MIC; transform: log10.

Input line: Please report the recorded log10 of MIC for "Cc1[nH]c(C(=O)Nc2ccc(-c3noc(=O)[nH]3)cc2N2CCN(C(=O)OC(C)(C)C)CC2)c(Cl)c1Cl" .
Output line: -0.60

Input line: Input "Cc1[nH]c(C(=O)Nc2ccc(-c3noc(=O)[nH]3)cc2N2CCC(NC(=O)OC(C)(C)C)CC2)c(Cl)c1Cl"
Output line: -0.30

Input line: Input "Cc1[nH]c(C(=O)Nc2ccc(-c3noc(=O)[nH]3)cc2N2CCCC2)c(Cl)c1Cl"
Output line: -1.20

Input line: Input Cc1[nH]c(C(=O)Nc2ccc(-c3noc(=O)[nH]3)cc2N2CCCC(CN)C2)c(Cl)c1Cl.Cl (centres undefined)
Output line: 0.30

Input line: Input "Cc1[nH]c(C(=O)Nc2ccc(-n3nn[nH]c3=O)cc2N2CCN(c3ccccc3)CC2)c(Cl)c1Cl"
Output line: -0.30

Input line: Input "Cc1[nH]c(C(=O)Nc2ccc(-c3noc(=O)[nH]3)cc2N2CCC(N)CC2)c(Cl)c1Cl.Cl"
Output line: 1.51

Input line: Input Cc1[nH]c(C(=O)Nc2ccc(-c3nnn[nH]3)cc2N2CCCC(CN)C2)c(Cl)c1Cl.Cl (centres undefined)
Output line: 1.20
